system: human PKK mRNA; test: Antisense inhibition of human PKK mRNA in HepaRG cells, 3,000 nM (Example 1); assay type: cell-based; settings: Table 1; PKK mRNA, HepaRG cells, 3,000 nM, electroporation, ~24 h, relative to untreated control cells
Strand notation (5' to 3'): a small letter for the sugar, then the base; units joined by * are phosphorothioate-linked, units joined directly phosphodiester-linked; [ ] holds rarer units or linkages, { } end groups; capitals alone tell only the bases. e = 2'-O-(2-methoxyethyl) (MOE); [5mC] = 5-methylcytosine; d = 2'-deoxy (DNA)
readout.type: % inhibition (%)
Numbers only, in %.

Sample records with % inhibition:
>>> quantitative_readout("530992 (eG*eT*e[5mC]*eA*e[5mC]*dA*dT*dT*d[5mC]*dA*dA*dT*dT*d[5mC]*dT*eT*e[5mC]*eT*e[5mC]*e[5mC]; antisense) [compound 530992]")
70
>>> quantitative_readout("531006 (eG*e[5mC]*eT*eT*eG*dT*dT*dT*dT*dT*dG*dT*dT*dG*dT*eG*e[5mC]*eA*eG*eA; antisense) [compound 531006]")
49
>>> quantitative_readout("530997 (eA*eA*eA*eA*e[5mC]*dT*dG*dA*d[5mC]*dA*dG*d[5mC]*dG*dA*dA*eT*e[5mC]*eA*eT*e[5mC]; antisense) [compound 530997]")
39
>>> quantitative_readout("530974 (antisense eT*eT*e[5mC]*eT*eT*dG*dA*dG*dG*dA*dG*dT*dA*dG*dA*eG*eG*eA*eA*e[5mC]) [compound 530974]")
18
>>> quantitative_readout("530958 (antisense eT*eT*eA*eA*eA*dA*dT*dT*dG*dA*d[5mC]*dT*d[5mC]*d[5mC]*dT*e[5mC]*eT*e[5mC]*eA*eT) [compound 530958]")
60
>>> quantitative_readout("530986 (e[5mC]*eG*eG*eG*eT*dA*dA*dA*dT*dT*dT*dT*dA*dG*dA*eA*eT*eG*eG*e[5mC]; antisense) [compound 530986]")
62
>>> quantitative_readout("530970 (antisense eT*eT*eG*eG*eT*dG*dT*dG*d[5mC]*d[5mC]*dA*d[5mC]*dT*dT*dT*e[5mC]*eA*eG*eA*eT) [compound 530970]")
74
>>> quantitative_readout("530993 (e[5mC]*eA*eA*eA*e[5mC]*dA*dT*dT*d[5mC]*dA*d[5mC]*dT*d[5mC]*d[5mC]*dT*eT*eT*eA*eA*e[5mC]; antisense) [compound 530993]")
30
>>> quantitative_readout("530931 (antisense e[5mC]*eT*eT*eA*eA*dA*dA*dA*dT*dG*dA*dA*d[5mC]*dG*dG*eT*e[5mC]*eT*eT*e[5mC]) [compound 530931]")
29
>>> quantitative_readout("530938 (antisense eG*eG*eA*eA*eA*dT*dG*dA*dA*dA*dT*dA*dA*dG*dT*eT*eG*e[5mC]*eT*eT) [compound 530938]")
11

Batch lookup, % inhibition per entry.
1. 530964 (antisense e[5mC]*eT*eT*e[5mC]*eA*dG*dT*dG*dA*dG*dA*dA*dT*d[5mC]*d[5mC]*eA*eG*eA*eT*eT) [compound 530964]
2. 530934 (antisense e[5mC]*eT*eT*e[5mC]*eT*dT*dG*dG*dA*dG*dG*dT*dG*dA*dG*eT*e[5mC]*eT*e[5mC]*eT) [compound 530934]
3. 530989 (eT*e[5mC]*eT*e[5mC]*e[5mC]*dT*d[5mC]*d[5mC]*dA*dA*dA*dG*dT*d[5mC]*dA*eA*e[5mC]*eT*e[5mC]*e[5mC]; antisense) [compound 530989]
4. 530948 (antisense eA*e[5mC]*eA*eT*eG*dG*dA*dA*dG*d[5mC]*dT*dA*d[5mC]*dA*dT*e[5mC]*e[5mC]*e[5mC]*e[5mC]*eA) [compound 530948]
5. 530975 (antisense eG*eT*eG*eT*eT*dT*dT*d[5mC]*dT*dT*dG*dA*dG*dG*dA*eG*eT*eA*eG*eA) [compound 530975]

Result:
1. 44
2. 54
3. 28
4. 35
5. 41

Batch lookup, % inhibition per entry.
1. 530942 (antisense e[5mC]*eA*eG*eG*eA*dA*dA*d[5mC]*dT*dG*dT*dA*dG*d[5mC]*dA*eA*eA*e[5mC]*eA*eA) [compound 530942]
2. 530930 (antisense eA*eA*eA*eT*eG*dA*dA*d[5mC]*dG*dG*dT*d[5mC]*dT*dT*d[5mC]*eA*eA*eG*e[5mC]*eT) [compound 530930]
3. 530985 (antisense eA*eA*eA*eT*eT*dT*dT*dA*dG*dA*dA*dT*dG*dG*d[5mC]*eA*eG*eG*eG*eT) [compound 530985]
4. 530960 (antisense eA*eT*eT*e[5mC]*eT*dT*d[5mC]*dA*dA*d[5mC]*dA*d[5mC]*dT*dG*d[5mC]*eT*eA*eA*e[5mC]*e[5mC]) [compound 530960]
5. 530955 (antisense e[5mC]*eA*eA*eA*e[5mC]*d[5mC]*dT*dT*dT*dT*d[5mC]*dT*d[5mC]*d[5mC]*dA*eT*eG*eT*e[5mC]*eA) [compound 530955]
6. 530962 (antisense e[5mC]*e[5mC]*eT*eT*eT*dT*dT*dT*dG*dG*d[5mC]*dA*dT*dT*d[5mC]*eT*eT*e[5mC]*eA*eA) [compound 530962]
7. 530943 (antisense eA*eT*e[5mC]*e[5mC]*eA*d[5mC]*dA*dG*dG*dA*dA*dA*d[5mC]*dT*dG*eT*eA*eG*e[5mC]*eA) [compound 530943]

Result:
[22, 17, 32, 58, 55, 64, 56]

Data provenance: patent US11840686B2
